Biological target: L106-tsLuc (FKBP L106P destabilizing domain fused to luciferase) in HCT116 cells (Homo sapiens, UniProt P62942, F37V)
Construct: expressed in transfected cells; host or cells: HCT116
Sequence (P62942 with tags, fused parts or gaps F37V limits assumed): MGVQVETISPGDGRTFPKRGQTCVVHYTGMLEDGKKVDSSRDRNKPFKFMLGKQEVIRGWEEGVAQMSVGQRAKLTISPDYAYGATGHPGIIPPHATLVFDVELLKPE
Test: Luciferase stabilization assay in HCT116 cells stably transfected with L106-tsLuc
Assay type: cell-based
Conditions: 24 hour incubation, 3-fold dilutions, 10 μM to 12 nM, BrightGlo readout, read-out: luciferase activity, expressed in IC50 values
pIC50: −log10 of the molar value.
readout.name: pIC50

Request: May I ask what pIC50 has been recorded for CC[C@H](C(=O)N1CCCC[C@H]1C(=O)OC(CCc1ccc(OC)c(OC)c1)c1cccc(OCCN2CCOCC2)c1)c1cc(OC)c(OC)c(OC)c1 (stereo partly drawn) [Shield-1, reference compound] ?
Result: > 8.00

Request: Dear colleague, I am looking for the recorded pIC50 of the following molecule: CC[C@H](C(=O)N1CCCC[C@H]1C(=O)N[C@H](CCc1ccc(OC)c(OC)c1)c1cccc(OCCN2CCOCC2)c1)c1cc(OC)c(OC)c(OC)c1
Result: > 7.00

Request: What pIC50 value was documented for this molecule, CCN(C(=O)N1CCCC[C@H]1C(=O)N[C@H](CCc1ccc(OC)c(OC)c1)c1cccc(OCCN2CCOCC2)c1)c1ccccc1 ?
Result: > 5.00

Data origin, for the record: patent US8153785B2
